assay: Ex vivo biodistribution in mice with MM1S tumor xenografts; conditions: both sexes, NSG, mouse, lung, 80 µCi, total radioactivity, 60 min p.i.; MM1S xenograft mice; read-out: uptake in lung
Readout type: tissue uptake at 1 h (%ID/g)
Please respond with the number in %ID/g and leave the unit unwritten.

## Task Answer with the recorded tissue uptake at 1 h of CC[C@H](C)[C@@H]1NC(=O)[C@@H]2CCCN2C(=O)[C@H](Cc2ccccc2)NC(=O)[C@H](CC(=O)O)NC(=O)[C@H](C)NC(=O)[C@@H]2CSCc3cc(cc(c3)CSC[C@H](NC(=O)[C@H](C)NC(=O)CCOCCOCCOCCNC(=O)CN3CCN(CC(=O)O)CCN(CC(=O)O)CC3)C(=O)N[C@@H](C(C)C)C(=O)N3CCC[C@H]3C(=O)N2)CSC[C@@H](C(N)=O)NC(=O)[C@H](Cc2ccc(O)cc2)NC(=O)[C@H](Cc2c[nH]c3ccccc23)NC1=O [[^68Ga]Ga‐AJ206, metal not drawn] only.
## Result 0.67

* * *

test: Ex vivo biodistribution in mice with U266 tumor xenografts; settings: both sexes, NSG, mouse, muscle, 50 µCi; 60 min p.i.; U266 xenograft mice; read-out: uptake in muscle
Readout type: tissue uptake at 1 h (%ID/g)
Please respond with the number in %ID/g and leave the unit unwritten.

## Task Answer with the recorded tissue uptake at 1 h of CC[C@H](C)[C@@H]1NC(=O)[C@@H]2CCCN2C(=O)[C@H](Cc2ccccc2)NC(=O)[C@H](CC(=O)O)NC(=O)[C@H](C)NC(=O)[C@@H]2CSCc3cc(cc(c3)CSC[C@H](NC(=O)[C@H](C)NC(=O)CCOCCOCCOCCNC(=O)CN3CCN(CC(=O)O)CCN(CC(=O)O)CC3)C(=O)N[C@@H](C(C)C)C(=O)N3CCC[C@H]3C(=O)N2)CSC[C@@H](C(N)=O)NC(=O)[C@H](Cc2ccc(O)cc2)NC(=O)[C@H](Cc2c[nH]c3ccccc23)NC1=O [[^68Ga]Ga‐AJ206, metal not drawn] only.
## Result 0.08

* * *

experiment: Ex vivo biodistribution in mice with U266 tumor xenografts; conditions: both sexes, NSG, mouse, heart, 50 µCi; 60 min p.i.; U266 xenograft mice; read-out: uptake in heart
Readout type: tissue uptake at 1 h
Show the value, then the unit it is measured in.

## Task Answer with the recorded tissue uptake at 1 h of CC[C@H](C)[C@@H]1NC(=O)[C@@H]2CCCN2C(=O)[C@H](Cc2ccccc2)NC(=O)[C@H](CC(=O)O)NC(=O)[C@H](C)NC(=O)[C@@H]2CSCc3cc(cc(c3)CSC[C@H](NC(=O)[C@H](C)NC(=O)CCOCCOCCOCCNC(=O)CN3CCN(CC(=O)O)CCN(CC(=O)O)CC3)C(=O)N[C@@H](C(C)C)C(=O)N3CCC[C@H]3C(=O)N2)CSC[C@@H](C(N)=O)NC(=O)[C@H](Cc2ccc(O)cc2)NC(=O)[C@H](Cc2c[nH]c3ccccc23)NC1=O [[^68Ga]Ga‐AJ206, metal not drawn] only.
## Result 0.15 %ID/g

* * *

assay: Ex vivo biodistribution in mice with MM1S tumor xenografts; conditions: both sexes, NSG, mouse, adrenals, 80 µCi, 90 min p.i.; MM1S xenograft mice; read-out: uptake in adrenals
Readout type: tissue uptake at 1.5 h (%ID/g)
Please respond with the number in %ID/g and leave the unit unwritten.

## Task Answer with the recorded tissue uptake at 1.5 h of CC[C@H](C)[C@@H]1NC(=O)[C@@H]2CCCN2C(=O)[C@H](Cc2ccccc2)NC(=O)[C@H](CC(=O)O)NC(=O)[C@H](C)NC(=O)[C@@H]2CSCc3cc(cc(c3)CSC[C@H](NC(=O)[C@H](C)NC(=O)CCOCCOCCOCCNC(=O)CN3CCN(CC(=O)O)CCN(CC(=O)O)CC3)C(=O)N[C@@H](C(C)C)C(=O)N3CCC[C@H]3C(=O)N2)CSC[C@@H](C(N)=O)NC(=O)[C@H](Cc2ccc(O)cc2)NC(=O)[C@H](Cc2c[nH]c3ccccc23)NC1=O [[^68Ga]Ga‐AJ206, metal not drawn] only.
## Result 0.44

* * *

Assay: Ex vivo biodistribution in mice with MOLP8 tumor xenografts
Set-up: species or system NSG mice
Details: both sexes, NSG, mouse, tumor/blood, 80 uCi, total radioactivity, 60 min p.i.; MOLP8 xenograft mice; read-out: Tumor/blood ratio
Protocol: […] Mice with 100–200 mm^3 tumor volume were used for ex vivo biodistribution studies. For radiotracer pharmacokinetics studies, mice with MOLP8 tumor xenografts received ≈80 µCi (2.96 MBq) [^68Ga]Ga‐AJ206 and were sacrificed at pre‐determined time points (5, 30, 60 and 120 min). Similarly, for dosimetry study, mice with MM1S tumor xenografts received ≈80 µCi (2.96 MBq) of [^68Ga]Ga‐AJ206 and were sacrificed at pre‐determined time points (5, 30, 60, 90 and 120 min). […]
Readout type: tissue to tissue ratio at 1 h

## Task Answer with the recorded tissue to tissue ratio at 1 h of CC[C@H](C)[C@@H]1NC(=O)[C@@H]2CCCN2C(=O)[C@H](Cc2ccccc2)NC(=O)[C@H](CC(=O)O)NC(=O)[C@H](C)NC(=O)[C@@H]2CSCc3cc(cc(c3)CSC[C@H](NC(=O)[C@H](C)NC(=O)CCOCCOCCOCCNC(=O)CN3CCN(CC(=O)O)CCN(CC(=O)O)CC3)C(=O)N[C@@H](C(C)C)C(=O)N3CCC[C@H]3C(=O)N2)CSC[C@@H](C(N)=O)NC(=O)[C@H](Cc2ccc(O)cc2)NC(=O)[C@H](Cc2c[nH]c3ccccc23)NC1=O [[^68Ga]Ga‐AJ206, metal not drawn] only.
## Result > 7

* * *

assay: Ex vivo biodistribution in mice with MM1S tumor xenografts; settings: both sexes, NSG, mouse, kidney, 80 µCi, 60 min p.i.; MM1S xenograft mice; read-out: uptake in kidney
Readout type: tissue uptake at 1 h (%ID/g)
Please respond with the number in %ID/g and leave the unit unwritten.

## Task Answer with the recorded tissue uptake at 1 h of CC[C@H](C)[C@@H]1NC(=O)[C@@H]2CCCN2C(=O)[C@H](Cc2ccccc2)NC(=O)[C@H](CC(=O)O)NC(=O)[C@H](C)NC(=O)[C@@H]2CSCc3cc(cc(c3)CSC[C@H](NC(=O)[C@H](C)NC(=O)CCOCCOCCOCCNC(=O)CN3CCN(CC(=O)O)CCN(CC(=O)O)CC3)C(=O)N[C@@H](C(C)C)C(=O)N3CCC[C@H]3C(=O)N2)CSC[C@@H](C(N)=O)NC(=O)[C@H](Cc2ccc(O)cc2)NC(=O)[C@H](Cc2c[nH]c3ccccc23)NC1=O [[^68Ga]Ga‐AJ206, metal not drawn] only.
## Result 14.1

* * *

assay: Ex vivo biodistribution in mice with MM1S tumor xenografts; conditions: both sexes, NSG, mouse, tumor/muscle, total radioactivity, 60 min p.i.; MM1S xenograft mice; read-out: Tumor/Muscle ratio
Readout type: tissue to tissue ratio at 1 h

## Task Answer with the recorded tissue to tissue ratio at 1 h of CC[C@H](C)[C@@H]1NC(=O)[C@@H]2CCCN2C(=O)[C@H](Cc2ccccc2)NC(=O)[C@H](CC(=O)O)NC(=O)[C@H](C)NC(=O)[C@@H]2CSCc3cc(cc(c3)CSC[C@H](NC(=O)[C@H](C)NC(=O)CCOCCOCCOCCNC(=O)CN3CCN(CC(=O)O)CCN(CC(=O)O)CC3)C(=O)N[C@@H](C(C)C)C(=O)N3CCC[C@H]3C(=O)N2)CSC[C@@H](C(N)=O)NC(=O)[C@H](Cc2ccc(O)cc2)NC(=O)[C@H](Cc2c[nH]c3ccccc23)NC1=O [[^68Ga]Ga‐AJ206, metal not drawn] only.
## Result 21.2

* * *

test: Ex vivo biodistribution in mice with MOLP8 tumor xenografts; set-up: species or system NSG mice; conditions: both sexes, NSG, mouse, tumor/blood, 80 uCi, total radioactivity, 30 min p.i.; MOLP8 xenograft mice; read-out: Tumor/blood ratio
Readout type: tissue to tissue ratio at 0.5 h
Lab note: write the figure by itself, no unit.

## Task Answer with the recorded tissue to tissue ratio at 0.5 h of CC[C@H](C)[C@@H]1NC(=O)[C@@H]2CCCN2C(=O)[C@H](Cc2ccccc2)NC(=O)[C@H](CC(=O)O)NC(=O)[C@H](C)NC(=O)[C@@H]2CSCc3cc(cc(c3)CSC[C@H](NC(=O)[C@H](C)NC(=O)CCOCCOCCOCCNC(=O)CN3CCN(CC(=O)O)CCN(CC(=O)O)CC3)C(=O)N[C@@H](C(C)C)C(=O)N3CCC[C@H]3C(=O)N2)CSC[C@@H](C(N)=O)NC(=O)[C@H](Cc2ccc(O)cc2)NC(=O)[C@H](Cc2c[nH]c3ccccc23)NC1=O [[^68Ga]Ga‐AJ206, metal not drawn] only.
## Result 1.43

* * *

assay: Ex vivo biodistribution in mice with MM1S tumor xenografts; conditions: both sexes, NSG, mouse, liver, 80 µCi, total radioactivity, 5 min p.i.; MM1S xenograft mice; read-out: uptake in liver
Readout type: tissue uptake at 5 min (%ID/g)
Please respond with the number in %ID/g and leave the unit unwritten.

## Task Answer with the recorded tissue uptake at 5 min of CC[C@H](C)[C@@H]1NC(=O)[C@@H]2CCCN2C(=O)[C@H](Cc2ccccc2)NC(=O)[C@H](CC(=O)O)NC(=O)[C@H](C)NC(=O)[C@@H]2CSCc3cc(cc(c3)CSC[C@H](NC(=O)[C@H](C)NC(=O)CCOCCOCCOCCNC(=O)CN3CCN(CC(=O)O)CCN(CC(=O)O)CC3)C(=O)N[C@@H](C(C)C)C(=O)N3CCC[C@H]3C(=O)N2)CSC[C@@H](C(N)=O)NC(=O)[C@H](Cc2ccc(O)cc2)NC(=O)[C@H](Cc2c[nH]c3ccccc23)NC1=O [[^68Ga]Ga‐AJ206, metal not drawn] only.
## Result 30.3
